The values you see were collected from the supplement of paper PMC10567573.

B1: CDKL4 (parent)
chain: AVKKFVESEDDPVVKKIALREIRM

Variants of: B1
procedure-text: protein stability index of a GFP-peptide fusion (GPS, HEK-293T) (PSI 1-6); higher = more stable;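 note: lentivirally expressed fusions sorted by FACS into six bins by GFP to DsRed ratio, PSI derived from sequencing read proportions per bin multiplied by bin number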
condition-description: c terminus: a fixed tail appended
Please respond with reported protein stability index for every item in the list.
API doc: respond with a numeric literal and nothing else, no unit.

Tell me the measured protein stability index of S8P , please.
2.7

Same question for P12Y please.
2.18

Same question for E9G please.
2.43

Same question for D11E please.
3.15

Same question for V14F please.
2.01

Same question for K3R please.
3.39

Same question for D10V please.
2.23

Same question for M24R please.
3.23

Same question for M24Y please.
3.86

Same question for E9W please.
2.38

Same question for F5Y please.
3.46

Same question for K4G please.
3.5

Same question for L19E please.
4.76
